All values here come from BindingDB's records for doi:10.1021/ja0466154.

target: Acetylcholinesterase (Tetronarce californica)
Sequence (P04058 whole entry): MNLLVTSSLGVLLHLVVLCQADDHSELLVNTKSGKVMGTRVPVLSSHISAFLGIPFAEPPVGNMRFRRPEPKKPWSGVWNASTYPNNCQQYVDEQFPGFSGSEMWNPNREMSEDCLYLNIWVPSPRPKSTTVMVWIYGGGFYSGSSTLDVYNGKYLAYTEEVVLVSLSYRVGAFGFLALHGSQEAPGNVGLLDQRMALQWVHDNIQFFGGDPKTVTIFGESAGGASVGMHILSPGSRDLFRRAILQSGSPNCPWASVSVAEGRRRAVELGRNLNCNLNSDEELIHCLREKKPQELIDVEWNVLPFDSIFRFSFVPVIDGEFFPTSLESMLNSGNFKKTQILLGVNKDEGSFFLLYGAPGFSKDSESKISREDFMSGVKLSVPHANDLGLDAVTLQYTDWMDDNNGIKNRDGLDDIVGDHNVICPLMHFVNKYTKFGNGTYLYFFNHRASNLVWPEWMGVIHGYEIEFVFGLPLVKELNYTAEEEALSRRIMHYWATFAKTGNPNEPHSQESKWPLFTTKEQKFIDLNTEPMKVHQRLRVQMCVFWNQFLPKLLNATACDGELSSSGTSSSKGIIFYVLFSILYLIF

{"columns": ["Compound", "Measurement target", "IC50 [nM]"],
 "data": [
  ["COc1ccc2c3c1O[C@H]1C[C@@H](O)C=C[C@@]31CC[N+](CCCCCCCCN1C(=O)c3ccccc3C1=O)=C2", "Acetylcholinesterase (Tetronarce californica)", 4],
  ["C[N+]1=Cc2ccc(OCCCCCCCCN3C(=O)c4ccccc4C3=O)c3c2[C@@]2(C=C[C@H](O)C[C@@H]2O3)CC1", "Acetylcholinesterase (Tetronarce californica)", 499],
  ["COc1ccc2c3c1O[C@H]1C[C@@H](O)C=C[C@@]31CC[N+](C)=C2 [galanthamine deriv. 14]", "Acetylcholinesterase (Tetronarce californica)", 702],
  ["COc1ccc2c3c1O[C@H]1C[C@@H](O)C=C[C@@]31CCN(CCCCCCCCN1C(=O)c3ccccc3C1=O)C2 [galanthamine deriv. 3d]", "Acetylcholinesterase (Tetronarce californica)", 38]
]}
